# measurement-notes: Selectivity index, ratio of CC50 for human HepG2(2.2.15) cells to IC50 for Hepatitis B virus infected in human HepG2(2.2.15) cells assessed as inhibition of viral e antigen secretion
# Format: functional
assay-readout: Ratio CC50/IC50

Ratio CC50/IC50 reading for CC(=O)[C@]1(O)CC[C@@]2(O)[C@]1(C)[C@H](OC(=O)/C=C(\C)C(C)C)C[C@@H]1[C@@]3(C)CC[C@H](OC(=O)/C=C/c4ccccc4C)CC3=CC[C@]12O : 6

compound CC(=O)[C@]1(O)CC[C@@]2(O)[C@]1(C)[C@H](OC(=O)/C=C(\C)C(C)C)C[C@@H]1[C@@]3(C)CC[C@H](OC(=O)/C=C/c4cccc(C)c4)CC3=CC[C@]12O , Ratio CC50/IC50 observed: >10.5

Ratio CC50/IC50 measured on CC(=O)[C@]1(O)CC[C@@]2(O)[C@]1(C)[C@H](OC(=O)/C=C(\C)C(C)C)C[C@@H]1[C@@]3(C)CC[C@H](OC(=O)/C=C/c4ccc(C=O)cc4)CC3=CC[C@]12O = 2.1

====

# measurement-notes: Selectivity index, ratio of CC50 for human HepG2(2.2.15) cells to IC50 for Hepatitis B virus infected in human HepG2(2.2.15) cells assessed as inhibition of viral e antigen secretion
# Assay type: functional
So I've got a bunch of compounds here, and I need their Ratio CC50/IC50 values.

In plain terms, CC(=O)[C@]1(O)CC[C@@]2(O)[C@]1(C)[C@H](OC(=O)/C=C(\C)C(C)C)C[C@@H]1[C@@]3(C)CC[C@H](OC(=O)/C=C/c4cc(F)cc(F)c4)CC3=CC[C@]12O has a documented Ratio CC50/IC50 of >14.8

Record CC(=O)[C@]1(O)CC[C@@]2(O)[C@]1(C)[C@H](OC(=O)/C=C(\C)C(C)C)C[C@@H]1[C@@]3(C)CC[C@H](OC(=O)/C=C/c4cc(C(F)(F)F)cc(C(F)(F)F)c4)CC3=CC[C@]12O . Reported Ratio CC50/IC50: >2.1

Item: CC(=O)[C@]1(O)CC[C@@]2(O)[C@]1(C)[C@H](OC(=O)/C=C(\C)C(C)C)C[C@@H]1[C@@]3(C)CC[C@H](OC(=O)/C=C/c4cccc(F)c4F)CC3=CC[C@]12O | Ratio CC50/IC50: 7.2

compound CC(=O)[C@]1(OC(=O)/C=C/c2ccccc2[N+](=O)[O-])CC[C@@]2(O)[C@]1(C)[C@H](OC(=O)/C=C(\C)C(C)C)C[C@@H]1[C@@]3(C)CC[C@H](OC(=O)/C=C/c4ccccc4[N+](=O)[O-])CC3=CC[C@]12O , Ratio CC50/IC50 observed: >3.3

Lab note: measured Ratio CC50/IC50 of CC(=O)[C@]1(O)CC[C@@]2(O)[C@]1(C)[C@H](OC(=O)/C=C(\C)C(C)C)C[C@@H]1[C@@]3(C)CC[C@H](OC(=O)/C=C/c4cccc([N+](=O)[O-])c4)CC3=CC[C@]12O was >7.7

====

# measurement-notes: Cytotoxicity against human HepG2(2.2.15) cells by modified-MTT assay
# Format: cell-based
I'd appreciate it if you could supply CC50 values for the items below.

According to the records, this compound CC(=O)[C@]1(O)CC[C@@]2(O)[C@]1(C)[C@H](OC(=O)/C=C(\C)C(C)C)C[C@@H]1[C@@]3(C)CC[C@H](OC(=O)/C=C/c4ccc(C=O)cc4)CC3=CC[C@]12O displays CC50 of 40.2 µM

// CC50 lookup, compound = CC(=O)[C@]1(O)CC[C@@]2(O)[C@]1(C)[C@H](OC(=O)/C=C(\C)C(C)C)C[C@@H]1[C@@]3(C)CC[C@H](OC(=O)/C=C/c4cccc(F)c4)CC3=CC[C@]12O , result: > 1060 µM

The reported CC50 of the compound CC(=O)[C@]1(O)CC[C@@]2(O)[C@]1(C)[C@H](OC(=O)/C=C(\C)C(C)C)C[C@@H]1[C@@]3(C)CC[C@H](OC(=O)/C=C/c4ccc(Cl)cc4)CC3=CC[C@]12O was 701 µM

Field CC50 (entry COc1cccc(/C=C/C(=O)O[C@H]2CC[C@@]3(C)C(=CC[C@]4(O)[C@@H]3C[C@@H](OC(=O)/C=C(\C)C(C)C)[C@@]3(C)[C@]4(O)CC[C@@]3(O)C(C)=O)C2)c1 ) reads > 1080 µM

// recorded CC50 for CC(=O)[C@]1(O)CC[C@@]2(O)[C@]1(C)[C@H](OC(=O)/C=C(\C)C(C)C)C[C@@H]1[C@@]3(C)CC[C@H](OC(=O)/C=C/c4ccc(F)c(F)c4F)CC3=CC[C@]12O : 397 µM

The compound listed as COc1ccc(/C=C/C(=O)O[C@H]2CC[C@@]3(C)C(=CC[C@]4(O)[C@@H]3C[C@@H](OC(=O)/C=C(\C)C(C)C)[C@@]3(C)[C@]4(O)CC[C@@]3(OC(=O)/C=C/c3ccc(OC)c(OC)c3)C(C)=O)C2)cc1OC has a reported CC50 of > 1210 µM

Value of CC50 reported for the compound CC(=O)[C@]1(O)CC[C@@]2(O)[C@]1(C)[C@H](OC(=O)/C=C(\C)C(C)C)C[C@@H]1[C@@]3(C)CC[C@H](OC(=O)/C=C/c4cccc(Cl)c4)CC3=CC[C@]12O is > 1320 µM

Note to self: CC50 recorded for CC(=O)[C@]1(O)CC[C@@]2(O)[C@]1(C)[C@H](OC(=O)/C=C(\C)C(C)C)C[C@@H]1[C@@]3(C)CC[C@H](OC(=O)/C=C/c4ccc(Cl)c(Cl)c4)CC3=CC[C@]12O was > 1420 µM

Given item CC(=O)[C@]1(O)CC[C@@]2(O)[C@]1(C)[C@H](OC(=O)/C=C(\C)C(C)C)C[C@@H]1[C@@]3(C)CC[C@H](OC(=O)/C=C/c4cccc([N+](=O)[O-])c4)CC3=CC[C@]12O , the value recorded as its CC50 is > 1590 µM

Entry under test: CC(=O)[C@]1(O)CC[C@@]2(O)[C@]1(C)[C@H](OC(=O)/C=C(\C)C(C)C)C[C@@H]1[C@@]3(C)CC[C@H](OC(=O)/C=C/c4ccc(Cl)cc4Cl)CC3=CC[C@]12O . Its CC50 was > 1890 µM

Value of CC50 reported for the compound CC(=O)[C@]1(O)CC[C@@]2(O)[C@]1(C)[C@H](OC(=O)/C=C(\C)C(C)C)C[C@@H]1[C@@]3(C)CC[C@H](OC(=O)/C=C/c4cccc(C)c4)CC3=CC[C@]12O is > 1390 µM

So for CC(=O)[C@]1(O)CC[C@@]2(O)[C@]1(C)[C@H](OC(=O)/C=C(\C)C(C)C)C[C@@H]1[C@@]3(C)CC[C@H](OC(=O)/C=C/c4c(F)c(F)c(F)c(F)c4F)CC3=CC[C@]12O , the logged CC50 turned out to be < 8.22 µM

Entry under test: CC(=O)[C@]1(O)CC[C@@]2(O)[C@]1(C)[C@H](OC(=O)/C=C(\C)C(C)C)C[C@@H]1[C@@]3(C)CC[C@H](OC(=O)/C=C/c4ccc(C)cc4)CC3=CC[C@]12O . Its CC50 was 550 µM

response.value for CC(=O)[C@]1(O)CC[C@@]2(O)[C@]1(C)[C@H](OC(=O)/C=C(\C)C(C)C)C[C@@H]1[C@@]3(C)CC[C@H](OC(=O)/C=C/c4cccc(OC(F)(F)F)c4)CC3=CC[C@]12O (field: CC50) = 584 µM

Lab note: CC(=O)[C@]1(O)CC[C@@]2(O)[C@]1(C)[C@H](OC(=O)/C=C(\C)C(C)C)C[C@@H]1[C@@]3(C)CC[C@H](OC(=O)/C=C/c4ccccc4[N+](=O)[O-])CC3=CC[C@]12O gave CC50 of > 1550 µM

Query COc1ccc(/C=C/C(=O)O[C@H]2CC[C@@]3(C)C(=CC[C@]4(O)[C@@H]3C[C@@H](OC(=O)/C=C(\C)C(C)C)[C@@]3(C)[C@]4(O)CC[C@@]3(O)C(C)=O)C2)cc1 yields CC50 of > 1380 µM

CC50 recorded for this compound, CCOc1cccc(/C=C/C(=O)O[C@H]2CC[C@@]3(C)C(=CC[C@]4(O)[C@@H]3C[C@@H](OC(=O)/C=C(\C)C(C)C)[C@@]3(C)[C@]4(O)CC[C@@]3(O)C(C)=O)C2)c1 , is > 2140 µM

Provenance of the data: ChEMBL document CHEMBL2046311
